- protocol text: Highest frequency of acute liver toxicity observed during clinical trials, expressed as a percentage. [column '% AIGUE' in source]
- recorded conditions: human
Tag: satisfied if measured Hepatotoxicity (acute) is not below 4%, not satisfied if it is.

- compound: "CCC1=C[C@@H]2CN(C1)Cc1c([nH]c3ccccc13)[C@@](C(=O)OC)(c1cc3c(cc1OC)N(C)[C@H]1[C@@](O)(C(=O)OC)[C@H](OC(C)=O)[C@]4(CC)C=CCN5CC[C@]31[C@@H]54)C2"
  class: "satisfied"
- compound: "CN(C)CCN(Cc1ccccc1)c1ccccn1"
  class: "not satisfied"
- compound: "Cc1cnc(NCCCN(C)C)c2c1[nH]c1ccc3cc(O)ccc3c12"
  class: "not satisfied"
- compound: "CN(N=O)C(=O)N[C@@H](C=O)[C@@H](O)[C@H](O)[C@H](O)CO"
  class: "satisfied"
- compound: "O=C(O)CCNC(=O)c1ccc(/N=N/c2ccc(O)c(C(=O)O)c2)cc1 [BALSALAZIDE]"
  class: "not satisfied"
- compound: "O=C(O)Cc1sc(-c2ccccc2)nc1-c1ccc(Cl)cc1"
  class: "satisfied"
- compound: "CCCCOCC(CN1C(=O)N(CC(COCCCC)OC(N)=O)C(=O)C(CC)(c2ccccc2)C1=O)OC(N)=O (stereo not drawn) [DIFEBARBAMATE]"
  class: "not satisfied"
- compound: "CCCCCCCCNC(C)C(O)c1ccc(SC(C)C)cc1 (stereo not drawn)"
  class: "not satisfied"
